System: human breast cancer cells MDA-MB-468
Test: Cytotoxicity test for compounds (CellTiter-Glo cell proliferation inhibition)
Assay type: cell-based
Conditions: Homo sapiens, MDA-MB-468, 72 h, read-out: MDA-MD-468/IC50 (nM)
Result type: IC50

Compound: CC[C@H](C)[C@@H]([C@@H](CC(=O)N1CCC[C@H]1[C@H](OC)[C@@H](C)C(=O)OC1(Cc2cccc(N)c2)CC1)OC)N(C)C(=O)[C@@H](NC(=O)[C@H](C(C)C)N(C)C)C(C)C [Example 32]
Tested system: human breast cancer cells MDA-MB-468
IC50: < 0.0256 nM
//
Compound: CC[C@H](C)[C@@H]([C@@H](CC(=O)N1CCC[C@H]1[C@H](OC)[C@@H](C)C(=O)O[C@@H](Cc1cccc(N)c1)C(F)F)OC)N(C)C(=O)[C@@H](NC(=O)[C@H](C(C)C)N(C)C)C(C)C [Example 25]
Tested system: human breast cancer cells MDA-MB-468
IC50: < 0.0256 nM

// switching to the query compound
For the compound shown here, C=CC[C@H](Cc1cccc(N)c1)OC(=O)[C@H](C)[C@@H](OC)[C@@H]1CCCN1C(=O)C[C@@H](OC)[C@H]([C@@H](C)CC)N(C)C(=O)[C@@H](NC(=O)[C@H](C(C)C)N(C)C)C(C)C [Example 18] , give the reported IC50.
< 0.0256 nM

The reported measurements were obtained from patent EP4786483A1.
